Target: HGF/SF (hepatocyte growth factor/scatter factor) (UniProt P14210 32-728, limits assumed)
Sequence (P14210 32-728 limits assumed): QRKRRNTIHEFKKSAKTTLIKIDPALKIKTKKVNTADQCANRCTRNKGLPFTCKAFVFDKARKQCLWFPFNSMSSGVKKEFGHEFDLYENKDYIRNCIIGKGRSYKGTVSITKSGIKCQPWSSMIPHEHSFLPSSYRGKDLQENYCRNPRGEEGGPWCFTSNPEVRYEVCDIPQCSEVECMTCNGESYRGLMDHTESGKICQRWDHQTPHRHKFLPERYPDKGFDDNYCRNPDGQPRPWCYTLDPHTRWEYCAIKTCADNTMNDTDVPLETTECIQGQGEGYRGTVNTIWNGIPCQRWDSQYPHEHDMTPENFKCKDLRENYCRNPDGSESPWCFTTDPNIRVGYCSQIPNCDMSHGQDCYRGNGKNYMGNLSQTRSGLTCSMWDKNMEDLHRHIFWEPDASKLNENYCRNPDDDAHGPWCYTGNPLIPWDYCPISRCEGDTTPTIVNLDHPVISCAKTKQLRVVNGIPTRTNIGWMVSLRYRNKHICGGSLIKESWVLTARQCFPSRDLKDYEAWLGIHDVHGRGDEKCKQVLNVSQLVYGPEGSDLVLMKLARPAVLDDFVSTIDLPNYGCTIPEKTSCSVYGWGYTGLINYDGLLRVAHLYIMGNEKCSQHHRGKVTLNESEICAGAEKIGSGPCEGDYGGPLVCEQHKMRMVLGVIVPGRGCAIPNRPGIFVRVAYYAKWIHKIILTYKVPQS
Experiment: SPR (BIAcore), HGF/SF immobilized on CM5 chip, Fab injected
pKd: −log10 of the molar value.
Entries and their measured pKd follow.

[
  {
    "binder": "HSFN 68-41 Fab (Fab, V domains shown, Fab with human Ckappa and human CH1, expressed from pComb3X in E. coli HB2151) VH: QQQLVESGGGLVQPGGSLRLSCAASGFTFSTYYMSWVRQAPGKGLEWVGYIGTSSGTTYYANSVKGRFTISSDNAKNSVYLQMNSLRPEDTAVYYCARGLGRINLWGQGTLVTVSS VL: ELQMTQSPSSVSASVGDRVTISCRASQDIRSLLAWYQQKPGKAPKLLIYKASTLESGVPSRFSGSGSGTEFTLTISNLQPDDFATYYCQQYSRYSGGTFGQGTKVEIRR",
    "pKd": 7.97
  },
  {
    "binder": "HSFN 68-27 Fab (Fab, V domains shown, Fab with human Ckappa and human CH1, expressed from pComb3X in E. coli HB2151) VH: QVQLVESGGGLVKPGGSRRLSCAASGFTFSTYYMSWVRQAPGKGLEWIGYIGTSSGTTYYANSVKGRFTISSDNAQNSVYLQMNSLRPEDTAVYYCARGLGRINLWGQGTLVTVSS VL: ELQMTQSPSTLSASVGDRVTITCRASQSISSRLAWYQQKPGKAPKLLIYRASTLEGGVPSRFSGSGSGTEFTLTISGLQPDDFATYYCQQYSTFSPTFGQGTQVDIKR",
    "pKd": 8.28
  },
  {
    "binder": "HSFN 68-13 Fab (Fab, V domains shown, also called anti-HGF/SF Fab humanized antibody) VH: QQQLVESGGGVVRPGGSLRLSCAASGFTFSTYYMSWVRQAPGKGLEWIGYIGTSSGTTYYANSVKGRFTISSDNAKNSVYLQMNSLRPEDTAVYYCARGLGRINLWGPGTLVTVSS VL: ELQMTQSPSSLSASVGDRVTITCRASQSISTWLAWYQQKPGKAPKLLIYKASTLESGVPLRFSGGGSGTDFTLTISSLQSEDFATYFCQQSYSLPPTFGQGTKVEVKR",
    "pKd": 8.68
  },
  {
    "binder": "HSFN 68-16 Fab (Fab, V domains shown, Fab with human Ckappa and human CH1, expressed from pComb3X in E. coli HB2151) VH: QQQLVESGGGLVQPGGSLRLSCAASGFTFSTYYMSWIRQAPGKGLEWIGYIGTSSGTTYYANSVKGRFTISSDNAQNSVYLQMNSLRPEDTAVYYCARGLGRINLWGQGTLVTVSS VL: ELVMTQSPSTLSASVGDRVTITCRASQSISSWLAWYQQKPGKAPKLLIYKASTLESGVSSRFSGGGSGTEFTLTISSLQPDDFATYYCQQYSRYSGGTFGQGTKVEIRR",
    "pKd": 7.37
  }
]
